Target: Rat Brain Microsomes (FAAH) (Rattus norvegicus, UniProt P97612)
Sequence (P97612 whole entry): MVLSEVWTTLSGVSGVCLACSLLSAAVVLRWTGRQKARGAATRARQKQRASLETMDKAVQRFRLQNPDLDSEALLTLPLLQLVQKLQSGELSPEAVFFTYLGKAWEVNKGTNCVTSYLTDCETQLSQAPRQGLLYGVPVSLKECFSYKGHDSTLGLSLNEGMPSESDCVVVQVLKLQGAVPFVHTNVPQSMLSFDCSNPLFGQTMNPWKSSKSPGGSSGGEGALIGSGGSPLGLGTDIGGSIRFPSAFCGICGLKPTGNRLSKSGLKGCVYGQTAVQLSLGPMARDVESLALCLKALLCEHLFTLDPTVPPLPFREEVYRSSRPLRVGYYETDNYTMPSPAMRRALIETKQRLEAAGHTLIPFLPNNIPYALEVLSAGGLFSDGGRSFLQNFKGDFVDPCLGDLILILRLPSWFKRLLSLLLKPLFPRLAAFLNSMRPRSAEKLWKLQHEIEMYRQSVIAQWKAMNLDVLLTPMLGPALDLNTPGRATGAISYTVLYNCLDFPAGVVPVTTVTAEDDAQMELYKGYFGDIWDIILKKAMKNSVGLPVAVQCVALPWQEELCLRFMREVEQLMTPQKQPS
parameter: IC50 (nM)

- molecule: "CCCCOC(=O)c1ccc(O)cc1 [Butylparaben, butylparaben]"
  parameter: "IC50"
  numeric.result: 1100
- molecule: "O=C(OCc1ccccc1)c1ccc(O)cc1 [Benzylparaben, benzylparaben]"
  parameter: "IC50"
  numeric.result: 230

---

Biological target: Human Recombinant hCE1 (carboxylesterase 1) (Homo sapiens, UniProt P23141)
Sequence (P23141 18-567): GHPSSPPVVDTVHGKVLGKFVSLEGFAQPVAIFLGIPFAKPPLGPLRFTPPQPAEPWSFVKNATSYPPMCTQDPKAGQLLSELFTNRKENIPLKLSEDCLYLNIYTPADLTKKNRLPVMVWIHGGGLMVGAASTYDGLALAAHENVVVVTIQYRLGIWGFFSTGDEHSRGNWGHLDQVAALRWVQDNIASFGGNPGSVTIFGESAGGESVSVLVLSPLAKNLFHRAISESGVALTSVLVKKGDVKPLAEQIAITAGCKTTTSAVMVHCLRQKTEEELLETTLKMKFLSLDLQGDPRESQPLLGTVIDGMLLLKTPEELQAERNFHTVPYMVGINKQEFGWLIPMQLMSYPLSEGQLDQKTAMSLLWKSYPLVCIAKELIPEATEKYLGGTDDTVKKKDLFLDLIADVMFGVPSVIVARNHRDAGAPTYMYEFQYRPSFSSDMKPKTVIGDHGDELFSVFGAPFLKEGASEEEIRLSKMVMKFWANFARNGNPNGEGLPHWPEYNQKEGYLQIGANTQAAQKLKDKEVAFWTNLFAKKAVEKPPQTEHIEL
Assay: Esterase inhibition, fluorimetric assay with CMNA substrate
pIC50: −log10 of the molar value.
The entries below come with measured pIC50 values attached.
parameter: pIC50

- compound: "NC(=O)c1cccc(-c2cccc(OC(=O)NC3CCCCC3)c2)c1 [URB597, reference compound]"
  parameter: "pIC50"
  result: 5.66
- compound: "CCCCOC(=O)c1ccc(O)cc1"
  parameter: "pIC50"
  result: "< 5.00"
- compound: "O=C(OCc1ccccc1)c1ccc(O)cc1"
  parameter: "pIC50"
  result: "< 5.00"

---

Target: Human Recombinant AADAC (arylacetamide deacetylase) (Homo sapiens, UniProt P22760)
Sequence (P22760 1-399): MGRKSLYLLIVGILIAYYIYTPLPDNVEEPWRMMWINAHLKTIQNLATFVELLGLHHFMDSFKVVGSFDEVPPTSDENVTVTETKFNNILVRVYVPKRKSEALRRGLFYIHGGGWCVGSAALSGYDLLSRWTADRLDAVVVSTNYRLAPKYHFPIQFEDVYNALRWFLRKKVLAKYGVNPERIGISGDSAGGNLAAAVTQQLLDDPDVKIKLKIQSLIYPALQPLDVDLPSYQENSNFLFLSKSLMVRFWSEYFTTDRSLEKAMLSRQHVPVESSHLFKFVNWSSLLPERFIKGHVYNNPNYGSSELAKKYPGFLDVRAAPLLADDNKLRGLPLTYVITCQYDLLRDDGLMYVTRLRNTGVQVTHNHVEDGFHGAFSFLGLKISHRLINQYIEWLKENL
Test: Esterase inhibition, fluorimetric assay with CMNA substrate
The entries below come with measured IC50 values attached.
parameter: IC50

- compound: "CCCCOC(=O)c1ccc(O)cc1 [Butylparaben, butylparaben]"
  result: "> 10 µM"
- compound: "NC(=O)c1cccc(-c2cccc(OC(=O)NC3CCCCC3)c2)c1 [URB597, reference compound]"
  result: "> 10 µM"
- compound: "O=C(OCc1ccccc1)c1ccc(O)cc1 [Benzylparaben, benzylparaben]"
  result: "> 10 µM"

---

Molecular target: Human Recombinant FAAH (fatty acid amide hydrolase) (Homo sapiens, UniProt O00519)
Sequence (O00519 whole entry): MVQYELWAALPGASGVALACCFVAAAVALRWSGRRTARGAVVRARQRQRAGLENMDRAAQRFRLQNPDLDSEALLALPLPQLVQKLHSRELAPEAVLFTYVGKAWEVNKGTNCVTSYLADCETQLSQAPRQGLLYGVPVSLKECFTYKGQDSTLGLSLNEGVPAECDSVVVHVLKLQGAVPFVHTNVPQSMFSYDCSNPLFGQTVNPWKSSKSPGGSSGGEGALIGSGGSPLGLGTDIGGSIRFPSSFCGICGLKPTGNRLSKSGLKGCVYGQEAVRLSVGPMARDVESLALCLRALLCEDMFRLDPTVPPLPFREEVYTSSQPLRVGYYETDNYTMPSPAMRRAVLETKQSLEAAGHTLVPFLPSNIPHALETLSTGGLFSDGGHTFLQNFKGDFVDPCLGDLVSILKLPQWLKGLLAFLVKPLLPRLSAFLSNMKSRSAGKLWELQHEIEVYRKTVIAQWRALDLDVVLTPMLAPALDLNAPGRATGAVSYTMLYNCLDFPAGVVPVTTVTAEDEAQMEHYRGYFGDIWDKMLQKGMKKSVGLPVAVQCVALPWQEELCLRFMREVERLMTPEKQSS
Experiment: FAAH inhibition, fluorimetric assay with OMP substrate, recombinant enzyme
Type: biochemical
Conditions: Ki, linear mixed-type model of inhibition

- smiles.text: "O=C(OCc1ccccc1)c1ccc(O)cc1"
  Ki, nM: 52

---

Target: Human Recombinant FAAH (fatty acid amide hydrolase) (Homo sapiens)
Test: FAAH inhibition, fluorimetric assay with OMP substrate, recombinant enzyme
Type: biochemical
Conditions: upper limit of relative Ki, at saturating substrate, mixed-type interaction

- molecule: "O=C(OCc1ccccc1)c1ccc(O)cc1 [Benzylparaben, benzylparaben]"
  Ki: "≤ 1 µM"
